Entry source: patent US20120190666A1

# Test system: phosphorylation of Akt at Serine 473 in U87 MG cells
# TEST METHOD NOTES: pAkt AlphaScreen (U87 cell)
# Assay type: cell-based
# TEST CONDITIONS: Homo sapiens, U-87 MG, 2 h; pAkt at Serine 473, U87 MG cells, two hours with compound
# key: entry, value: IC50
ATTRIBUTE MEASURED: IC50 (µM)

                                   compound  attribute_measured  unit  measured_number
0  Cc1nc(Nc2cccnn2)cc(-c2c(Nc3ccn(C)n3)nc3cccnn23)n1 [Cpd 34]                IC50    µM             0.06
1  Cc1nc(N)cc(-c2c(Nc3cc[nH]n3)nc3cccnn23)n1 [Cpd 7]                IC50    µM             0.02
2  Cc1nc(N)cc(-c2c(Nc3cc[nH]n3)nc3ccc(OCCN4CCCC4)nn23)n1 [Cpd 73]                IC50    µM             0.07
3  Cc1nc(N)cc(-c2c(Nc3ccn(C(=O)Nc4cc(F)cc(F)c4)n3)nc3cccnn23)n1 [Cpd 242]                IC50    µM             0.08
4  CSc1cccc(-c2ccc3nc(Nc4cc[nH]n4)c(-c4nc(C)nc(N)n4)n3c2)c1 [Cpd 109]                IC50    µM             0.22
5  COCC(=O)Nc1cc(-c2c(Nc3ccn(C)n3)nc3cccnn23)nc(C)n1 [Cpd 123]                IC50    µM             0.15
6  Cc1nc(NC(=O)N(C)C)cc(-c2c(Nc3cc[nH]n3)nc3cccnn23)n1 [Cpd 75]                IC50    µM             0.79
7  Cc1nc(N)nc(-c2c(Nc3cc[nH]n3)nc3ccc(-c4ccc5c(c4)CCNC5=O)cn23)n1 [Cpd 175]                IC50    µM             0.03
8  Cc1nc(NC(=O)CC#N)cc(-c2c(Nc3ccn(C)n3)nc3ccccn23)n1 [Cpd 126]                IC50    µM             0.22

---

# TARGET OF ASSAY: PI3Kα (Homo sapiens, UniProt P42336)
# Construct: Full length p110 subunits of PI3K α, β and δ, N-terminally labeled with polyHis tag; polyHis (N)
# Sequence (P42336 whole entry): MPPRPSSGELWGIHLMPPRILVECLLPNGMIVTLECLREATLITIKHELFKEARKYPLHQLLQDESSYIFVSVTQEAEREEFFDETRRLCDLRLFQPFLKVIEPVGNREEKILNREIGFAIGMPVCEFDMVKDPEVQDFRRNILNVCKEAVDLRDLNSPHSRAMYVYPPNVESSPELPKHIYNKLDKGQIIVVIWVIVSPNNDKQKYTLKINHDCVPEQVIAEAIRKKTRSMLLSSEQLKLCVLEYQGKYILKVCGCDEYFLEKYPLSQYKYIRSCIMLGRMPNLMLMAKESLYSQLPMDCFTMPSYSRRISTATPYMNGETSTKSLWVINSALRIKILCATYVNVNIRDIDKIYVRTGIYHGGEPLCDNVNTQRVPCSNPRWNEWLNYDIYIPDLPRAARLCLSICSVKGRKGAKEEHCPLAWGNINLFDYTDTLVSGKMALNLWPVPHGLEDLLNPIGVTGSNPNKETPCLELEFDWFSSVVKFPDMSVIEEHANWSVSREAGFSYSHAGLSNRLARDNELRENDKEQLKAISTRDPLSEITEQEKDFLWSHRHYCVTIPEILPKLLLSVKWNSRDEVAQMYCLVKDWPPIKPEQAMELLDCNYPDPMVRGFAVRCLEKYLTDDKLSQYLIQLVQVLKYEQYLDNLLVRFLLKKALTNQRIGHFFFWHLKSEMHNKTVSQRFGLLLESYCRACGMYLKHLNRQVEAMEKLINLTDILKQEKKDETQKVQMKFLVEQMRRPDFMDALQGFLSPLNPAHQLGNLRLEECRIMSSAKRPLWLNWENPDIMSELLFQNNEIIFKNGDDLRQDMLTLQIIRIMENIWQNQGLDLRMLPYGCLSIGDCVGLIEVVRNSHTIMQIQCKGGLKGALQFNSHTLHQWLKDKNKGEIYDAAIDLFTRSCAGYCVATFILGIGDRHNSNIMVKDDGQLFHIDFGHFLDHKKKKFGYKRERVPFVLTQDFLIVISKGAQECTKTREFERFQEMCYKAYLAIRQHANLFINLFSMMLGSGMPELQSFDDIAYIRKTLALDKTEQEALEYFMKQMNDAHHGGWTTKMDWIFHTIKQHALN
# Sequence (P27986 whole entry partner): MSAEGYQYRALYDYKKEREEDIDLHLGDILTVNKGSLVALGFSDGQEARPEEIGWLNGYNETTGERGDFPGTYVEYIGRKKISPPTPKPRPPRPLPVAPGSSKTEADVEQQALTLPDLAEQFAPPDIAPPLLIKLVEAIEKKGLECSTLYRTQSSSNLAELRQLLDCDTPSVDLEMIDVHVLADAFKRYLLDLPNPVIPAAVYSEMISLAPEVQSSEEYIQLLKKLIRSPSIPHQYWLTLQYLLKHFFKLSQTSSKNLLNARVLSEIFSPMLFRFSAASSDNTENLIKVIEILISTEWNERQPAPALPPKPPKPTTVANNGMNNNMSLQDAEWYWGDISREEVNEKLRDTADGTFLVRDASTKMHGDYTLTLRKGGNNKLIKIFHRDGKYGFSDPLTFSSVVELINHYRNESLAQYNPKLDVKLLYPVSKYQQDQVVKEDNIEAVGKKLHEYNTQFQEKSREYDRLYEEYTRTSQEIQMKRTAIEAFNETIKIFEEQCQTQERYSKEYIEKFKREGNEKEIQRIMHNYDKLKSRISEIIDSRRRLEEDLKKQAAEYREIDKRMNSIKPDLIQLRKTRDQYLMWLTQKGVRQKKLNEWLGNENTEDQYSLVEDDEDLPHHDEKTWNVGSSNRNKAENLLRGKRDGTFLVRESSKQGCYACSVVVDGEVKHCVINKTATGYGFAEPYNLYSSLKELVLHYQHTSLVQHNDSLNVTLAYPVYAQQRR
# TEST METHOD NOTES: In vitro PI3K AlphaScreen assay, PI3Kα
# TEST CONDITIONS: PI(4,5)P2 substrate, 20 minutes at room temperature, read-out: P13Kalpha IC50 um
ATTRIBUTE MEASURED: log10 of IC50 (log10 of the value in µM)

In [3]: df
Out[3]:
                                   compound  attribute_measured  measured_number
0  Cc1nc(NC(=O)Cc2cccc(F)c2)cc(-c2c(Nc3ccn(C)n3)nc3ccccn23)n1       log10 of IC50             0.70
1  Cc1nc(N)cc(-c2c(Nc3ccn(C(=O)Nc4cc(F)cc(F)c4)n3)nc3cccnn23)n1       log10 of IC50             0.37
2  Cc1nc(Nc2cc(OCC(F)(F)F)cnn2)cc(-c2c(Nc3cc[nH]n3)nc3cccnn23)n1       log10 of IC50             1.59
3  Cc1nc(N)nc(-c2c(Nc3ccn[nH]3)nc3ccc(CCC(O)CO)cn23)n1 (centres unmarked)       log10 of IC50            -0.77
4  Cc1nc(N)cc(-c2c(Nc3cccc(NC(=O)Cc4ccccc4)c3)nc3ccccn23)n1       log10 of IC50             1.08
5  Cc1nc(NC(=O)CN(C)C)cc(-c2c(Nc3ccn(C)n3)nc3cccnn23)n1       log10 of IC50             1.30
6  Cc1nc(N)cc(-c2c(Nc3cc[nH]n3)nc3cccnn23)n1       log10 of IC50            -0.08
7  Cc1nc(N)nc(-c2c(Nc3cc[nH]n3)nc3ccc(Nc4ccncc4)cn23)n1       log10 of IC50             0.75

---

# TARGET OF ASSAY: PI3Kα (Homo sapiens, UniProt P42336)
# Construct: Full length p110 subunits of PI3K α, β and δ, N-terminally labeled with polyHis tag; polyHis (N)
# TEST METHOD NOTES: In vitro PI3K AlphaScreen assay, PI3Kα
# TEST CONDITIONS: PI(4,5)P2 substrate, 20 minutes at room temperature, read-out: P13Kalpha IC50 um
pIC50: −log10 of the molar value.
# pIC50 >= 6 gives MET, anything below gives NOT MET

                            compound_string  class_assignment
0  Cc1nc(N)nc(-c2c(Nc3cc[nH]n3)nc3ccc(-c4cccc(NC(=O)C5CC5)c4)cn23)n1               MET
1  CC(=O)Nc1cc(-c2c(Nc3ccn(C)n3)nc3c(F)cccn23)nc(C)n1           NOT MET
2  CNc1cc(-c2c(Nc3cc[nH]n3)nc3cc(N4CCOCC4)cnn23)nc(C)n1           NOT MET
3  CNC(=O)c1ccc(-c2ccc3nc(Nc4cc[nH]n4)c(-c4nc(C)nc(N)n4)n3c2)cc1F               MET

---

# TARGET OF ASSAY: mTOR (Homo sapiens, UniProt P42345)
# TEST METHOD NOTES: mTOR LanthaScreen (TR-FRET, phosphorylation of 4EBP1)
# Assay type: biochemical
# TEST CONDITIONS: phosphorylation of GFP-4E-BP1, 10 μM ATP, 90 minutes
ATTRIBUTE MEASURED: IC50 (nM)

>>> print(df.to_string())
                            compound_string  unit  measured_number
0  Cc1nc(N)nc(-c2c(Nc3ccnn3C(=O)N3CCOCC3)nc3ccccn23)n1    nM              250
1  Cc1nc(N)nc(-c2c(Nc3cnn(C(=O)Oc4ccccc4)c3)nc3ccccn23)n1    nM              300
2  CC(=O)Nc1cccc(-c2ccc3nc(Nc4cc[nH]n4)c(-c4nc(C)nc(N)n4)n3c2)c1    nM               10
3  Cc1nc(N)nc(-c2c(Nc3cc[nH]n3)nc3cc(OCCN4CCCC4)ccn23)n1    nM              360
4  CCOC(=O)c1cc(Nc2cc[nH]n2)n(-c2cc(N)nc(C)n2)n1    nM              144
5  COc1ccc(-c2ccc3nc(Nc4ccn[nH]4)c(-c4nc(C)nc(N)n4)n3c2)cc1CO    nM              120
6  Cc1nc(N)cc(-c2c(Nc3ccc(NC(=O)Nc4ccncc4)cc3)nc3ccccn23)n1    nM               10
7  Cc1nc(N)cc(-c2c(Nc3cc[nH]n3)nc3ccc(OCCN4CCCC4)nn23)n1    nM               50

---

# System: phosphorylation of Akt at Serine 473 in U87 MG cells
# TEST METHOD NOTES: pAkt AlphaScreen (U87 cell)
# Type: cell-based
# TEST CONDITIONS: Homo sapiens, U-87 MG, 2 h; pAkt at Serine 473, U87 MG cells, two hours with compound
# Description: The pAkt AlphaScreen® assay (PerkinElmer, Waltham, Mass.) determines whether there is phosphorylation of Akt at Serine 473 by recruitment of a phosphospecific antibody. This assay was performed using U87 MG cells. […] The first day of the assay, the adherent cells were trypsinized, media was added to the loose cells and cells were mixed to a homogenous mixture. 0.5 ml of the homogenous mixture was counted on the Beckman Coulter® Vi-Cell™ XR (Fullerton, Calif.). […]
Entries annotated with measured IC50
ATTRIBUTE MEASURED: IC50 (nM)

In [3]: df
Out[3]:
                            compound_string  measured_number
0  Cc1nc(NC(=O)CC(F)(F)F)cc(-c2c(Nc3ccn(C)n3)nc3cccnn23)n1              210
1  Cc1nc(Nc2ccc(N3CCOCC3)nn2)cc(-c2c(Nc3ccn(C)n3)nc3cccnn23)n1              280
2  Cc1nc(N)cc(-c2c(Nc3ccn(-c4ccccn4)n3)nc3ccccn23)n1              450
3  Cc1nc(Nc2ccc(N3CCOCC3)nn2)cc(-c2c(Nc3cc[nH]n3)nc3ccccn23)n1               60
4  Cc1nc(N)cc(-n2nc(C(=O)N3CCOCC3)cc2Nc2ccn[nH]2)n1              280
5  Cc1nc(N)cc(-c2c(Nc3ccn(C(=O)NCc4ccccc4)n3)nc3ccccn23)n1             1810
6  COc1ccc(Nc2nc3ccccn3c2-c2nc(C)nc(N)n2)cn1               40
7  COCCN1CCN(c2ccc3nc(Nc4cnc(OC)c(F)c4)c(-c4nc(C)nc(N)n4)n3c2)CC1               26
